System: Plasmodium falciparum
assay.explanation: GSK_TCMDC: Inhibition of Plasmodium falciparum Dd2 in whole red blood cells, using parasite LDH activity as an index of growth. Test compounds present at 2uM
Assay type: functional
The reader will find reported Inhibition values listed item by item below.
metric: Inhibition

# compound, target.or.test.system, metric, data.value
records = [
    ("Cl.FC(F)(F)c1ccccc1OCc1cc(-c2ccncc2)c(COc2ccccc2C(F)(F)F)cc1C1=CCNCC1", "Plasmodium falciparum", "Inhibition", "81%"),
    ("CCOC(=O)c1ccc(NC(=O)Nc2ccc(-c3ccc(-c4nc5cccc(C)c5[nH]4)s3)cc2)cc1", "Plasmodium falciparum", "Inhibition", "100%"),
    ("COc1cccc(-c2cccc(CNC3CCN(CC4Cn5c(=O)ccc6ccc(F)c4c65)CC3)c2)c1.O=C(O)C(F)(F)F (centres undefined)", "Plasmodium falciparum", "Inhibition", "15%"),
    ("O=C(O)/C=C\\C(=O)O.c1cc(CN2CCCCC2)cc(OCCCNc2ccnc3ccccc23)c1", "Plasmodium falciparum", "Inhibition", "99%"),
    ("CS(=O)(=O)NCCCNCc1ccc(-c2ccc(-c3nc4cc(F)ccc4[nH]3)s2)cc1.O=C(O)C(F)(F)F", "Plasmodium falciparum", "Inhibition", "30%"),
    ("COc1cc(C(=O)NCCCN2CCN(c3cccc(Cl)c3)CC2)ccc1-c1nc2cc(Cl)c(F)cc2[nH]1", "Plasmodium falciparum", "Inhibition", "81%"),
    ("CCOc1ccc(-c2nonc2NC(=O)c2ccccc2)cc1OCC", "Plasmodium falciparum", "Inhibition", "100%"),
    ("c1cc(Cc2ccc(Nc3c4ccccc4nc4ccccc34)cc2)cc(Nc2c3ccccc3nc3ccccc23)c1", "Plasmodium falciparum", "Inhibition", "100%"),
    ("Cl.O=C(/C=C/c1ccccc1F)NC1CCC(CCN2CCc3ccc(-c4cccnc4)cc3CC2)CC1 (centres undefined)", "Plasmodium falciparum", "Inhibition", "5%"),
]

* * *

Inhibition: recorded values
System: Plasmodium falciparum
assay.explanation: GSK_TCMDC: Inhibition of Plasmodium falciparum 3D7 in whole red blood cells, using parasite LDH activity as an index of growth. Test compounds present at 2uM
Format: functional

# compound, Inhibition, %
rows = [
    ("NS(=O)(=O)c1ccc(CNc2ccc3ncc(-c4ccc(OC(F)(F)F)cc4)n3n2)cc1", 97),
    ("COc1ccc(CCN2CCC(Nc3nc4ccccc4n3CCc3ccc(OC)cc3)CC2)cc1.Cl", 100),
    ("C[C@@H](Oc1cc(-n2cnc3ccc(OCC4CCN(S(C)(=O)=O)CC4)cc32)sc1C(N)=O)c1ccccc1C(F)(F)F", 84),
    ("COc1ccc(OC)c(NC(=O)CSc2nc(-c3ccccc3Cl)ns2)c1", 95),
    ("CCOc1ccccc1C1CCN(CCCCNC(=O)c2ccc(NC(=O)c3ccc(Cl)cc3)cc2)CC1", 95),
    ("CCC(C(=O)Nc1ccccc1)n1nc(-c2ccc(C)c(S(=O)(=O)N3CCCCC3)c2)ccc1=O (stereo not drawn)", 85),
    ("N#Cc1ccc(S(=O)(=O)N2C(c3cccc([N+](=O)[O-])c3)C(C(=O)c3ccccc3)N(C3CCCCC3)C2c2cccc([N+](=O)[O-])c2)cc1 (stereo not drawn)", 83),
    ("Cc1cccc2nc(-c3ccc(-c4cccc(NC(=O)CCc5c[nH]cn5)c4)s3)[nH]c12", 94),
]

All figures here come from ChEMBL document CHEMBL1157539.
